- System: HT29 colon
- assay protocol: NCI tumour cell line growth inhibition, 48 h
quantity: TGI

Known TGI results, listed for orientation:
- molecule: "COc1ccc2c(c1)[n+](=O)c(C(=O)C/C(=N\\NC(=O)C[N+](C)(C)C)C(=O)Nc1cc(Cl)ccc1Cl)c(C)n2O"
  reported result: "> 100 µM"
- molecule: "[B]C(=O)NC(CC(C)C)C(=O)NC1c2ccsc2C(=O)C1O (centres undefined) (tested in a mixture with another compound)"
  reported result: "> 100 µM"
- molecule: "Cc1cnc2n(c1=O)Cc1ccccc1CO2"
  reported result: "96.9 µM"
- molecule: "Cc1ccc(S(=O)(=O)N/N=C2/C3CC4CCC2C4C3)cc1 (centres undefined)"
  reported result: "> 100 µM"
- molecule: "O=[N+]([O-])c1cc(C2ON=C(c3ccccc3)N2C23CC4CC(CC(C4)C2)C3)ccc1Cl (centres undefined)"
  reported result: "> 100 µM"
- molecule: "COc1ccc(C2=Nn3c(C)nnc3S/C2=C\\c2ccc(-c3ccc([N+](=O)[O-])cc3)o2)cc1"
  reported result: "43 µM"

*Q* // TGI lookup, key: `Nc1c(-c2ccc(-c3c(N)[n+]([O-])c4ccccc4[n+]3[O-])cc2)[n+]([O-])c2ccccc2[n+]1[O-]`
*A* 27.1 µM

*Q* Which TGI value is on record for `Nc1[nH]nc2c1Cc1c(n(Cc3ccc(Cl)cc3)c3ccccc13)C(=O)N2` ?
*A* 34.9 µM

*Q* Request the reported TGI associated with C=CCOC1=C(OC(C)=O)C(C2COC(C)(C)O2)OC1=O (centres undefined)
*A* 38.4 µM

*Q* Endpoint output: TGI of COC(=O)Cc1c(-c2c(CC(=O)OC)c3ccccc3n2C2OC(COC3OC(COC(C)=O)C(OC(C)=O)C(OC(C)=O)C3OC(C)=O)C(O)C(O)C2O)[nH]c2ccccc12 (centres undefined) . Value?
*A* > 100 µM

*Q* Reported TGI for O=C1CSC2(CC(/C=C/c3ccccc3[N+](=O)[O-])=NN2c2cccc(S(=O)(=O)O)c2)N1c1nc2ccccc2s1 (centres undefined) : what is it?
*A* 69.1 µM

*Q* Item COc1ccccc1N1C(=O)/C(=C\c2ccccc2)SC1c1cc(OC)c(OC)c(OC)c1 (centres undefined) has what recorded TGI?
*A* > 100 µM

*Q* For the molecule shown here, O=C1OC(/C=C/c2ccccc2)C(=O)C1=O (centres undefined) , give the reported TGI.
*A* > 100 µM

*Q* // query TGI value for entry Cc1cn(C2CC(/[N+]([O-])=N\Nc3ccc([N+](=O)[O-])cc3)C(CO)O2)c(=O)[nH]c1=O (centres undefined)
*A* > 100 µM

*Q* Would you mind telling me what TGI value was observed for NC(CSC(c1ccccc1)(c1ccccc1)c1ccc(Br)cc1)C(=O)O (centres undefined) ?
*A* > 54.9 µM

*Q* Bench note: what TGI did CC(=O)Oc1ccc(C2SCc3nc4ccccc4n32)cc1 (centres undefined) show?
*A* > 100 µM

*Q* GET /values?readout=TGI&item= `O=C1CCC(=O)C12CCc1ccccc12`
*A* > 100 µM

*Q* Given the entry `COc1ccc(OC/C(N=Cc2cccnc2)=N/NC(=O)c2ccncc2)cc1` , report its measured TGI.
*A* > 100 µM

*Q* Dear colleague, I am looking for the recorded TGI of the following molecule: `COC(=O)c1cccc(COc2ccc([N+](=O)[O-])cc2Cl)c1`
*A* > 100 µM
